- TEST TARGET: Cyclooxygenase
- METHOD DESCRIPTION: Cyclooxygenase inhibiting effect (prostaglandin E2 formation from 14C-arachidonic acid, seminal vesicular gland microsomes)
- DETAILS: seminal vasicular gland microsomes, prostaglandin E2 radioactivity
- Procedure: (1) Cyclooxygenase inhibiting effect This assay was carried out by the method described in Russell J. Taylor et al., Biochem. Pharmacol., 25, 2479-2484 (1976). ^14 C-arachidonic acid was reacted with seminal vasicular gland microsomes and the test drugs at various concentrations over a predetermined period of time and the obtained prostaglandin E2 was separated by thin layer chromatography. The radioactivity of prostaglandin E2 was determined by liquid scintillation counter. […]
pIC50: −log10 of the molar value.
Label Condition met for high-side pIC50 (at or above 6) and Condition not met for low-side pIC50 (below it).

TEST SMILES	TEST TARGET	CAT
COc1ccc(-c2noc(CCNC(=O)C(=Cc3cc(OC)c(O)c(OC)c3)C(=O)N(C)C)c2-c2ccc(OC)cc2)cc1	Cyclooxygenase	Condition not met
COc1ccc(-c2noc(C(C#N)=Cc3cc(OC)c(O)c(OC)c3)c2-c2ccc(OC)cc2)cc1	Cyclooxygenase	Condition not met
CCOC(=O)C(=Cc1cc(OC)c(O)c(OC)c1)C(=O)NCCc1onc(-c2ccc(OC)cc2)c1-c1ccc(OC)cc1	Cyclooxygenase	Condition not met
COc1ccc(-c2noc(CCNC(=O)C(C#N)=Cc3cc(OC)c(O)c(OC)c3)c2-c2ccc(OC)cc2)cc1	Cyclooxygenase	Condition not met
COc1ccc(-c2noc(CCNC(=O)C(=Cc3cc(OC)c(O)c(OC)c3)c3cccs3)c2-c2ccc(OC)cc2)cc1	Cyclooxygenase	Condition met
COc1ccc(-c2noc(CCNC(=O)C(=Cc3cc(OC)c(O)c(OC)c3)NC(C)=O)c2-c2ccc(OC)cc2)cc1	Cyclooxygenase	Condition met
COc1ccc(-c2noc(CCN(CC(=O)O)C(=O)C=CC=Cc3cc(OC)c(O)c(OC)c3)c2-c2ccc(OC)cc2)cc1	Cyclooxygenase	Condition not met
